Reference source for all entries: paper PMC9005681

- targetOrSystem: dopamine transporter (Homo sapiens, UniProt Q01959)
- Construct: expressed in transfected cells
- Sequence (Q01959 whole entry): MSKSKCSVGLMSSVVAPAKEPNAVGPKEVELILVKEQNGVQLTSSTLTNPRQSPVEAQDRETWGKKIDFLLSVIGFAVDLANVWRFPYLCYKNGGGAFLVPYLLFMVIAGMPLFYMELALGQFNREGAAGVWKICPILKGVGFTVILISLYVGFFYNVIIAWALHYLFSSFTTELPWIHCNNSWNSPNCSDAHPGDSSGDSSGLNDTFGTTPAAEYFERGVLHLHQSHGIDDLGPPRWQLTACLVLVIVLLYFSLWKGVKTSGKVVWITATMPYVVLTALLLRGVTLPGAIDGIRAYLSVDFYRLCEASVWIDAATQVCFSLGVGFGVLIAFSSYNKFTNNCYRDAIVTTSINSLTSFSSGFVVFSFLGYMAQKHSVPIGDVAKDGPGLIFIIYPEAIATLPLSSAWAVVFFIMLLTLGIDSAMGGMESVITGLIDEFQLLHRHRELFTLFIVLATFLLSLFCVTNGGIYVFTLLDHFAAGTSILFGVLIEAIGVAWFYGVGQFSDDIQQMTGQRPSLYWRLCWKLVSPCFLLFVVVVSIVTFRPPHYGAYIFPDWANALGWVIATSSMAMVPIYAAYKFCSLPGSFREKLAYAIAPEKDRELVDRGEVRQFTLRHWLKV
- testName: PDSP secondary binding, dopamine transporter
- Set-up: species or system human or rodent
- conditionDetails: Receptor DAT; secondary assay; read-out: Ki (nM) 1
propertyMeasured: Ki (nM)
One number for each entry, in nM.

Fill in the blank: the reported Ki of CCCCNc1ncc2c(-c3ccc(CN4CCN(C)CC4)cc3)cn([C@H]3CC[C@H](O)CC3)c2n1 [UNC2025C, UNC2025] is ____.
9870

----------
- targetOrSystem: cloned human or rodent CNS receptors, channels, and transporters (PDSP panel) (Homo sapiens)
- Construct: expressed in transfected cells
- Sequence (P41595 whole entry): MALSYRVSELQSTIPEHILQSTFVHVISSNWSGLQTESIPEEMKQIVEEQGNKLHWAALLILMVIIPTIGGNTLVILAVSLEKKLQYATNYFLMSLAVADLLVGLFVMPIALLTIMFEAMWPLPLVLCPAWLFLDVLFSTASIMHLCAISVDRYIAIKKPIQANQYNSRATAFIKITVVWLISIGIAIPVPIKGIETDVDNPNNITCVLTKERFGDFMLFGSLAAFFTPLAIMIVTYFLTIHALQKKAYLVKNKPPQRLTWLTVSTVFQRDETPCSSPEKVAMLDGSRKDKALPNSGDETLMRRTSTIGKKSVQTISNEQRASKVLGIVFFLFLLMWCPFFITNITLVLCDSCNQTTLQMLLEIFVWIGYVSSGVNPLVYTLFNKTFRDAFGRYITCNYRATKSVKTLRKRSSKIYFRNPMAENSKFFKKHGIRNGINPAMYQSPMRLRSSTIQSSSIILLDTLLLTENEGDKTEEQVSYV
- testName: PDSP GPCR panel primary binding assays at 10 μM
- conditionDetails: Receptor 5-HT2B; primary assay, 10 μM
propertyMeasured: Inhibition 2 (%)
Give bare numbers, in %.

[
  {
    "molecule": "CCCCNc1ncc2c(-c3ccc(CN4CCN(C)CC4)cc3)cn([C@H]3CC[C@H](O)CC3)c2n1 [UNC2025C, UNC2025]",
    "Inhibition 2 (%)": 8.76
  }
]

Batch lookup, Inhibition 2 per entry.
1. c1cn2cc(-c3ccc4cn[nH]c4c3)nc(Nc3ccc(N4CCOCC4)cc3)c2n1 [UNC10302678A, Entospletinib (GS-9973)]
2. O=c1oc2ccccc2cc1-c1cn2cc(Cc3ccc(F)cc3)sc2n1 [UNC10302680A, iMDK]
3. Cl.NC(=O)c1cnc(N[C@@H]2CCCC[C@@H]2N)nc1Nc1cccc(-n2nccn2)c1 [UNC10302682A, P505-15 (PRT06207 HCl)]

0.79
-38.65
3.3
